Values were extracted from PubChem BioAssay AID624098.

assayInfo: Assay for General Anesthetic Phenotype in Xenopus Tadpoles
conditionDetails: startle-response immobility, 1 h, at 10 µM, active compounds read high
From the text: Anesthetic development has remained a largely empirical process. There are growing concerns about the cognitive effects of known general anesthetics and acceleration of the onset of neurodegenerative disease. The compounds' toxicity and multiple specific binding targets in the mammalian brain [4] has made them less attractive as drug leads. This assay was designed for the in vivo follow-up testing of compounds in tadpoles. References: [1] S.L. Bianchi, T. Tran, C. […]
Results filed as inconclusive are left out.
endpoint: immobility (%)
Answers are plain numbers, in %.

# count of solved cases: 2
CC(C)c1ccc(=O)n(CC(=O)NCCc2ccccc2)n1 | 0
Cc1ccc(-c2ccc(=O)n(CC(=O)NCCc3ccccc3)n2)cn1 | 0

For each of the compounds below, note its immobility.
1. O=C(Cn1nc(-c2ccc(OC(F)(F)F)cc2)ccc1=O)NCCc1ccccc1
2. COc1ccc(-c2ccc(=O)n(CC(=O)NCCc3ccccc3)n2)cc1OC
3. O=C(Cn1nc(-c2cccnc2)ccc1=O)NCCc1ccccc1
4. O=C(Cn1ncccc1=O)NCCc1ccccc1
5. C[S+](=O)([O-])c1ccc(-c2ccc(=O)n(CC(=O)NCCc3ccccc3)n2)cc1
6. O=C(Cn1nc(-c2ccc3c(c2)OCO3)ccc1=O)NCCc1ccccc1
7. Cc1ccccc1-c1ccc(=O)n(CC(=O)NCCc2ccccc2)n1
8. O=C(Cn1nc(C2CC2)ccc1=O)NCCc1ccccc1

Result string:
1. 80
2. 10
3. 0
4. 0
5. 5
6. 0
7. 0
8. 0

For each of the compounds below, note its immobility.
1. COc1ccccc1-c1ccc(=O)n(CC(=O)NCCc2ccccc2)n1
2. O=C(Cn1nc(-c2ccc(F)cc2)ccc1=O)NCCc1ccccc1
3. O=C(Cn1nc(-c2ccncc2)ccc1=O)NCCc1ccccc1
4. COc1ccc(-c2ccc(=O)n(CC(=O)NCCc3ccccc3)n2)cc1
5. CC(C)COc1ccc(-c2ccc(=O)n(CC(=O)NCCc3ccccc3)n2)cc1

Result string:
1: 5; 2: 5; 3: 5; 4: 75; 5: 100
